Target: Cytochrome P450 2A6 (Homo sapiens)
Sequence (P11509 whole entry): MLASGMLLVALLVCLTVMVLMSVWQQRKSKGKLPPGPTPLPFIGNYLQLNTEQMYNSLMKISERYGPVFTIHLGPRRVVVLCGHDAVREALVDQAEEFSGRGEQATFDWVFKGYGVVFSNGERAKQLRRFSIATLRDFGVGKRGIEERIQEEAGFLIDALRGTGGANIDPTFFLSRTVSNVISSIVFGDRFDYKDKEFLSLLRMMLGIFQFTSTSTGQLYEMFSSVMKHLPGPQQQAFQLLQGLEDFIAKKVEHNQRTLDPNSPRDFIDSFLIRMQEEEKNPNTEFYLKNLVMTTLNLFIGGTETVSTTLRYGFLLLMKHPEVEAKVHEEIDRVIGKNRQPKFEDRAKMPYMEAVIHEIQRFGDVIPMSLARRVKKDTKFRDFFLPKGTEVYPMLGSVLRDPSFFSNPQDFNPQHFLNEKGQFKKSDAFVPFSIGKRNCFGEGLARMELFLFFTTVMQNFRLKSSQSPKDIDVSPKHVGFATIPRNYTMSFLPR
Several reports have described IC50 for Cytochrome P450 2A6 (Homo sapiens); a selection of those results is presented here.

| STRUCTURE STRING | IC50 |
| --- | --- |
| COc1ccc(CN2CCN(c3ccc(NC(=O)c4ccccc4NC(=O)c4cnc5ccccc5c4)cc3)CC2)cc1OC | > 100 µM |
| CN(C)c1ccc(-c2nc3c(N4CCN(CC(=O)Nc5nccs5)CC4)c(Cl)cnc3[nH]2)cc1 | > 10 µM |
| O=C(c1cccc(F)c1)N1CCc2oc(-c3ccc(F)cn3)nc2C1 | > 50 µM |
| O=c1cc(-c2ccc3c(c2)OCC=C3)oc2cccc(O)c12 | > 25 µM |
